B1: Myocardin, residues 363 to 406; numbered along this chain, Q8IZQ8 (parent)
chain: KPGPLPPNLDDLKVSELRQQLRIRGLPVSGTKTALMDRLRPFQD

Variants of: B1
Test details: abundance fitness (aPCA) (normalised: wild type 0, dead -1); higher = more abundant; growth selection in yeast, the domain comes from the species named
Assay setup: Homo sapiens
Below: a set of entries, each annotated with reported abundance fitness.

See these solved cases before continuing.
R18M : -0.503
S29E : 0.129

// lookup abundance fitness for L26Q
-0.503

Report abundance fitness for P4V please.
0.09

Numbers sourced from the Human Domainome abundance scans (Beltran et al. 2025).
